Origin of the recorded values: paper PMC8477192

- Assay system: BmOR3 (Bombyx mori, UniProt Q5FBE0)
- Sequence (Q5FBE0 entry or part of it): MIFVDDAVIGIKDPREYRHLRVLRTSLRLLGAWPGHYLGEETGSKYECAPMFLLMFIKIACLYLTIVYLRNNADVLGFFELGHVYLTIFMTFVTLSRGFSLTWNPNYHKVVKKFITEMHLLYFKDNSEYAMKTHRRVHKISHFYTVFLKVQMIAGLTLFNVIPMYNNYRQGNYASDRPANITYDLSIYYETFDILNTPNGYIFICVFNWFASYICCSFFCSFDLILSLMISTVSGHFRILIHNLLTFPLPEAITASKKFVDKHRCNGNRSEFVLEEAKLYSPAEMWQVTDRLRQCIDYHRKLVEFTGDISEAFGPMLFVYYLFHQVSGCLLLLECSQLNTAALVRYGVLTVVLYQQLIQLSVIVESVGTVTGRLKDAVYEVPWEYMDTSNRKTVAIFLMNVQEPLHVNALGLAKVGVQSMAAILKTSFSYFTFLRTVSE
- Method description: Arrestin recruitment BRET assay
- Assay type: cell-based
- Experimental parameters: HEK293 cells; BmArr1; 10 min stimulation; read-out: potency of recruitment of BmArr1 to BmOR3 (concentration-dependent)
Measure: EC50 (nM)
Express your answer in nM, writing the number without its unit.

// field: EC50; key: CCC/C=C\C=C\CCCCCCCCC=O [bombykal] ; value = 90

----------
- Assay system: UniProt:Q5FBE0
- Method description: G protein recruitment BRET assay (Gi-Rluc to YFP-BmOR3)
- Type: cell-based
- Experimental parameters: HEK293 cells; Gi1; 2 min stimulation; read-out: EC50 of coupling of Rluc-tagged Gi1 to YFP-fused BmOR3
Measure: EC50 (nM)
Express your answer in nM, writing the number without its unit.

// field: EC50; key: CCC/C=C\C=C\CCCCCCCCC=O [bombykal] ; value = 11.7
